- Target under test: 15-LOX (soybean lipoxygenase) (Glycine max)
- Construct: purchased Merck or Aldrich
- Sequence (P08170 1-839): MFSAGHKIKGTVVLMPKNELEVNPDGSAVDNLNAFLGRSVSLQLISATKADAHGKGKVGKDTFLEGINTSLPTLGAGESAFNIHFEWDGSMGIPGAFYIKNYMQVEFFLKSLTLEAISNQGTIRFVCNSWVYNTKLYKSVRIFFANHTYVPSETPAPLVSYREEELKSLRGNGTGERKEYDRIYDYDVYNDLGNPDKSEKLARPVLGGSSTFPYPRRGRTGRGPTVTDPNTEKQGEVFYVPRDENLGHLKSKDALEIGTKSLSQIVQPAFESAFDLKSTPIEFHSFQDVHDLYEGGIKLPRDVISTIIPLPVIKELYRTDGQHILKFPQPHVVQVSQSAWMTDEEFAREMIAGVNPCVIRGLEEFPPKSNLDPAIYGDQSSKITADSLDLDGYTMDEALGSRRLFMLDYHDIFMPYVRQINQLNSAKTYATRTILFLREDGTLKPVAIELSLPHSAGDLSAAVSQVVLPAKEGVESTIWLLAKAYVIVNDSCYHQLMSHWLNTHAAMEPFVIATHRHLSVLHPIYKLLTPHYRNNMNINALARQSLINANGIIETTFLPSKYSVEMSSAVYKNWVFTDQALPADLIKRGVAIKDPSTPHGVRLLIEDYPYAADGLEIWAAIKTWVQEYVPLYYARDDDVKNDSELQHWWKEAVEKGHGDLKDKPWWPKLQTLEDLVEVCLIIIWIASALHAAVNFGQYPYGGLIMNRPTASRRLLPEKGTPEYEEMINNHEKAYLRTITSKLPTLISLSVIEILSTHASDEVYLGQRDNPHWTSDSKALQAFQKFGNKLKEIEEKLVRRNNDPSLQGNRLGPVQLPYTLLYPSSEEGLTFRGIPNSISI
- Experiment: Soybean 15-LOX inhibition assay
- Format: biochemical
- Measurement context: soybean lipoxygenase, linoleic acid substrate; read-out: 15-LOX IC50
// IC50 lookup, one value per entry

Smiles str: O=c1oc2ccccc2cc1-c1ccc(OCc2cn(Cc3ccc(Cl)cc3)nn2)cc1
IC50: > 100 µM
//
Smiles str: O=c1oc2ccc(Br)cc2cc1-c1ccc(OCc2cn(Cc3ccccc3F)nn2)cc1
IC50: 61.5 µM
//
Smiles str: O=c1oc2ccc([N+](=O)[O-])cc2cc1-c1ccc(OCc2cn(Cc3ccccc3F)nn2)cc1
IC50: > 100 µM
//
Smiles str: O=c1oc2ccccc2cc1-c1ccc(OCc2cn(Cc3ccc(Br)cc3)nn2)cc1
IC50: > 100 µM
//
Smiles str: O=c1oc2ccc(Br)cc2cc1-c1ccc(OCc2cn(Cc3ccc(Br)cc3)nn2)cc1
IC50: > 100 µM
//
Smiles str: COc1cccc2cc(-c3ccc(OCc4cn(Cc5ccccc5[N+](=O)[O-])nn4)cc3)c(=O)oc12
IC50: > 100 µM
//
Smiles str: O=c1oc2ccccc2cc1-c1ccc(OCc2cn(Cc3cccc([N+](=O)[O-])c3)nn2)cc1
IC50: > 100 µM
//
Smiles str: O=c1oc2ccccc2cc1-c1ccc(OCc2cn(Cc3ccc([N+](=O)[O-])cc3)nn2)cc1
IC50: > 100 µM
//
Smiles str: O=c1oc2ccccc2cc1-c1ccc(OCc2cn(Cc3ccccc3Cl)nn2)cc1
IC50: > 100 µM
//
Smiles str: Cc1cccc(Cn2cc(COc3ccc(-c4cc5ccccc5oc4=O)cc3)nn2)c1
IC50: 53.5 µM
//
Smiles str: O=c1oc2ccccc2cc1-c1ccc(OCc2cn(Cc3ccccc3[N+](=O)[O-])nn2)cc1
IC50: > 100 µM

// provenance: paper PMC8812461
